Test system: BT-549 breast
Assay: NCI-60 one-dose screen, 48 h (100 = growth as untreated, 0 = no growth, -100 = all killed)
Conditions: 10 µM unless noted
About 83,000 compounds went through this panel and 20% of them were active in at least one assay; those are over-represented in the sample as a whole. Activity calls are given as the source filed them. Rule for the calls: active = growth percent below 10; inactive = the rest.
Measured growth, listed per entry for reference.

# example entries with known answers
- CCc1ccc(SC2c3ccc(N(CC)CC)cc3Oc3nc(N)c(C#N)c(N)c32)cc1 (stereo not drawn): 65.9% (inactive)
- CN1c2ccccc2Sc2cc(C=C(C#N)C#N)ccc21: 110% (inactive)
- COc1ccc2[nH]cc(/C=N/Nc3nc4ccccc4s3)c2c1: 58.7% (inactive)

// lookup growth | system=BT-549 breast | key= C=CCn1c(SCC(=O)Nc2ccc(C(=O)/C=C/c3ccc(C)cc3)cc2)nnc1-c1c[nH]c2ccccc12
107% (inactive)

Please state recorded growth (tested on BT-549 breast) of COc1ccc(S(=O)(=O)NCCCNc2nccc(-c3[nH]c(-c4ccccc4)nc3-c3ccc(Cl)c(O)c3)n2)cc1
88.3% (inactive)

---

System: SR leukemia
Test: NCI-60 one-dose screen, 48 h (100 = growth as untreated, 0 = no growth, -100 = all killed)
Conditions: 10 µM unless noted
The panel holds about 83,000 compounds, 20% with a hit somewhere; the sample as a whole holds those more often.
Quick reference for growth among some molecules
Give the number; % is assumed, so skip it.

* COc1cc(OC)c(S(N)(=O)=O)cc1C(=O)/C=C/c1ccc(C)cc1 | 5.66
* CCNC(=O)Oc1ccc(/C(=C(/C)c2ccccc2)c2ccc(OCCN3CCCCCC3)cc2)cc1 | 0.632
* O=C(CN1CCN(c2cc(=O)[nH]c3ccc(F)cc23)CC1)Nc1ccc(Cl)cc1 | 84.3
* CC(C)(O)c1cncc(-c2ccc3ncnc(NCc4ccccc4)c3c2)c1 | 92.2
* O=C(NNc1nc2cc(F)ccc2n2cccc12)c1ccncn1 | 8.74
* O=S(=O)(NC1c2ccccc2C[C@H]1O)c1ccc(Cl)cc1Cl (stereo not given in full) | 87.2

What value of growth has been recorded for this entry: COc1ccc(C(=O)CSc2nc3c(c(Nc4ccc(S(N)(=O)=O)cc4)n2)CCCC3)cc1
69.6

Find the recorded growth belonging to Cc1ccc(S(=O)(=O)NCCNc2nc(Nc3ccc(N4CCN(C)CC4)cc3)nc3ccsc23)cc1 and report it.
18.1

Please report the recorded growth for C=C1CC[C@@H]2[C@](C)(CO)[C@H](O)CC[C@@]2(C)[C@@H]1C/C(O)=C1\CCOC1=O .
83.6

Consider the molecule shown here: Cn1ccnc1C(=O)/C=C/c1ccc(CNC(=O)c2ccc(Cl)cc2)cc1 What is its recorded growth?
4.17

---

Test system: NCI-H226 lung
Test: NCI-60 one-dose screen, 48 h (100 = growth as untreated, 0 = no growth, -100 = all killed)
Details: 10 µM unless noted
About 83,000 compounds went through this panel and 20% of them were active in at least one assay; those are over-represented in the sample as a whole.
Label criterion met when growth < 90%; otherwise criterion not met.

Some solved cases for reference:
• C[C@H]1c2[nH]c3ccccc3c2C[C@H]2C(=O)N(CCCCCCC(=O)NO)CC(=O)N21 = criterion not met
• CCOC(=O)C(=O)CC(=O)N1C(=S)NC(=O)C1CC(C)C (centres undefined) = criterion not met
• COc1cc(C2N=C(NNc3ccccc3)NC(C)=C2C(C)=O)ccc1O (centres undefined) = criterion met
• O=C(NCCn1ccnc1)c1ccc(-c2nc3ccc4[nH]ncc4c3c3c2CCCC3)cc1 = criterion met
• O=C(NCc1ncc[nH]1)c1ccc(-c2nc3ccc4[nH]ncc4c3c3c2CCCC3)cc1 = criterion met
• CC[C@H](CO)Nc1ccc2ncc(C#Cc3cncc(C(=O)Nc4ccc(CN5CCN(C)CC5)c(C(F)(F)F)c4)c3)n2n1 = criterion met
• C=C(C=O)[C@@H]1CC[C@]2(COC(C)=O)CC[C@]3(C)C(CC[C@@H]4[C@@]5(C)CC[C@H](OC(C)=O)C(C)(C)[C@@H]5CC[C@]43C)[C@@H]12 (some centres undefined) = criterion met
• COc1ccc(C(=O)CSc2nc3c(c(Nc4ccc(S(N)(=O)=O)cc4)n2)CCCC3)cc1 = criterion not met

Then this compound:
Does Cc1ccc(-c2cc3nc(C(Cl)Cl)nc(-c4ccco4)n3n2)cc1 have growth strictly under 90%?
criterion met

---

System: SF-295 CNS
Test: NCI-60 one-dose screen, 48 h (100 = growth as untreated, 0 = no growth, -100 = all killed)
Conditions: 10 µM unless noted
Protocol: Cells are grown in 96 well plates and exposed to the test compound for 48 hours. Compounds are tested at a single concentration, which is 10^-5 M for most compounds. The reported endpoint is percent growth (GI% or GIPRCNT), where numbers from 0 - 100% represent growth inhibition, and numbers from -100% - 0 represent cell death. For example, a value of 40 represents 60% growth inhibition. A value of 0 means no net growth occurred over the course of the experiment. […]
Compounds without any hit were thinned out: in the full panel of roughly 83,000, 20% have a hit.
Listed here are compounds together with their documented growth.
# unit: % | format: bare number

Below: 5 compounds and their reported growth.
* CN1CCN(Cc2ccc(NC(=O)c3cncc(C#Cc4cnn5cccnc45)c3)cc2C(F)(F)F)CC1 | 56.7
* O=C(NNc1nc2cc(F)ccc2n2c(CO)ccc12)c1cnccn1 | 3.48
* COc1cc2oc(-c3cccc(C(=O)N[C@@H](CC(C)C)C(=O)OC(C)(C)C)c3)cc(=O)c2c(OC)c1OC | 52.3
* O=C(CCC(=O)N1CCOCC1)OCCCCCCSc1ccc([N+](=O)[O-])c2nonc12 | -12.5
* CNc1ncc2cc(-c3ccc(-c4ncccc4F)cc3Cl)c(=O)n(CC3OCC(N)CO3)c2n1 (configuration not stated) | 74.3

State the recorded growth for this entry: COc1cc(-c2nn(C(C)(C)C)cc2-c2ccnc(NCCCNS(=O)(=O)c3ccc(C)cc3)n2)ccc1Cl
88

Tell me the measured growth of COc1cccc(N2CCN(c3ncnc4c3[nH]c3ccc(F)cc34)C[C@H]2C)c1 , please.
31.8

What measured growth goes with Cc1ccc(NC(=O)c2ccc(CN3CCOCC3)c(C(F)(F)F)c2)cc1Oc1ccc(-c2[nH]nc3ncnc(N)c23)cc1 ?
63.2

# get_value(readout='growth', item= Cc1ccc(-n2cc(/C=C/C(=O)c3ccc(O)cc3)c(-c3ccc(S(C)(=O)=O)cc3)n2)cc1 )
87.3

---

Test system: MCF7 breast
Assay: NCI-60 one-dose screen, 48 h
Details: 10 µM unless noted
The panel holds about 83,000 compounds, 20% with a hit somewhere; the sample as a whole holds those more often. Activity calls are given as the source filed them. Rule for the calls: active = growth percent below 10; inactive = the rest.
Hello, when you answer, please use one of the following outcomes: active, inactive

See these solved cases before continuing.
* CCOC(=O)C(=O)/C(=C\c1ccc(Cl)cc1)C(=O)N1C(=S)NC(=O)C1CC(C)C (stereo not given) | inactive
* COc1ccc2[nH]cc(/C=N/Nc3nc4ccccc4s3)c2c1 | inactive
* Cc1ccc(C2=Nn3c(nnc3-c3ccccc3)SC2)cc1 | inactive
* O=C(CSc1nc2ccccc2c(=O)n1-c1ccc(Cl)cc1)N/N=C/c1ccc(N2CCCCC2)cc1 | inactive
* c1n[nH]cc1-c1nc2ccc3[nH]ncc3c2c2c1CCCC2 | active
* Cn1cc(CNc2nc3ccc(OC/C(=C/F)CN)cc3o2)ccc1=O | inactive
* Cc1ccc(-c2cc3nc(C(Cl)Cl)nc(-c4cccs4)n3n2)cc1 | inactive
* O=C(NNc1nc2cc(F)ccc2n2c(CN3CCCC3)ccc12)c1cnccn1 | active

Which outcome was assigned to COc1ccc(-c2nc3cccc(O)c3c(=O)n2Cc2ccccc2)cc1COc1ccc(NC(C)=O)cc1 in this test?
inactive

Give the logged outcome of this assay for the following compound: O=C(Nc1nonc1-c1ccccc1)c1ccc(C(F)(F)F)cc1
inactive

---

Reported growth is given for each of the following molecules.
Tested on: OVCAR-5 ovarian
Assay: NCI-60 one-dose screen, 48 h (100 = growth as untreated, 0 = no growth, -100 = all killed)
Conditions: 10 µM unless noted
Compounds without any hit were thinned out: in the full panel of roughly 83,000, 20% have a hit.
Express the result in % but write the number alone.

Recorded growth, per entry:
- CCN(CC)c1cn(-c2ccc(S(N)(=O)=O)cc2)nn1: 105
- C#CCC#CCN1CCC[C@H]1C(=O)NCC(=O)OC: 107
- Cc1ccc(NC(=O)N[C@@H](Cc2cc(F)cc(F)c2)C(=O)NC2C(=O)N3C[C@H](O)C[C@H]3C(=O)N3CCCC[C@H]3C(=O)N[C@@H](CO)C(=O)N3C[C@H](C)C[C@H]3C(=O)O[C@H]2C)c(F)c1 (some centres undefined): 43.8
- NC(=O)c1cccc(C#CCNC[C@H]2C[C@@H](n3ccc4c(Cl)ncnc43)[C@H](O)[C@@H]2O)c1: 98.4
- COc1ccc(-n2c(SCc3n[nH]c(=S)o3)nc3ccc(Cl)cc3c2=O)cc1: 89.7

Form field - read-out: growth; system: OVCAR-5 ovarian; submitted item: Cc1ccc(S(=O)(=O)NCCNc2nc(Nc3ccc(N4CCN(C)CC4)cc3)nc3ccsc23)cc1
113

Request: growth, test system OVCAR-5 ovarian, entry CS(=O)(=O)Nc1cc(-c2ccc3ncc(C#N)c(NCc4ccccc4F)c3c2)cnc1Cl
16.8

For OVCAR-5 ovarian, provide growth of O=C(CCn1c[n+](CC(=O)c2ccc(-c3ccccc3)cc2)c2ccccc21)Nc1cccc2cccnc12 please.
81.9

Kindly state the measured growth obtained for CN1CCN(c2nc(-c3csc(-c4ccccc4)n3)cc3ccccc23)CC1 with OVCAR-5 ovarian.
59.4

// map CNC(=O)c1cc(-c2ccc(NS(=O)(=O)c3ccc(C)cc3)cc2)nc2cccnc12 to recorded growth (system: OVCAR-5 ovarian)
117
